biological target: EGFR^wt-TK (Homo sapiens); construct: purchased; assay: In vitro EGFR^wt-TK assay (ELISA kit); format: biochemical; settings: 1 μM, mean ± SD of three replicates, read-out: EGFR^wt-TK inhibition rate
measured quantity: inhibition at 1 µM (%)
Please state the figure in %; there is no need to write the unit.

CNC(=O)c1sccc1Nc1nc(Nc2ccc(NC(=O)C3CCOCC3)cc2)ncc1C(F)(F)F [Compound 9p] = 36.5
CNC(=O)c1sccc1Nc1nc(Nc2ccc(NC(=O)C3CCC(=O)CC3)cc2)ncc1C(F)(F)F [Compound 9q] = 35.5

Tell me reported inhibition at 1 µM for CNC(=O)c1sccc1Nc1nc(Nc2ccc(NC(=O)Nc3cccc(F)c3)cc2)ncc1C(F)(F)F [Compound 9w] , tested with EGFR^wt-TK (Homo sapiens). 47.7

###

The next entries give measured IC50 for EGFR^wt-TK (Homo sapiens).
Dear colleague, please return just the value in nM, with no unit written.

Example entries and their recorded answers appear below.
CNC(=O)c1sccc1Nc1nc(Nc2ccc(NC(=O)c3cc(OC)c(OC)c(OC)c3)cc2)ncc1C(F)(F)F [Compound 9h] = 350
CNC(=O)c1sccc1Nc1nc(Nc2ccc(NC(=O)c3cccc(F)c3)cc2)ncc1C(F)(F)F [Compound 9c] = 310

Now consider a different molecule.
Give its IC50 value. Item: CNC(=O)c1sccc1Nc1nc(Nc2ccc(NC(=O)C=Cc3cccc(F)c3)cc2)ncc1C(F)(F)F [Compound 9u] 91

###

Measured melting point accompanies every entry in the list below.

Consider the following illustrative entries.
CNC(=O)c1sccc1Nc1nc(Nc2ccc(NC(=O)C3CCC3)cc2)ncc1C(F)(F)F = 236.1 to 236.4 °C
CNC(=O)c1sccc1Nc1nc(Nc2ccc(NC(=O)C3CCN(C)CC3)cc2)ncc1C(F)(F)F = 210.8 to 211.6 °C
CNC(=O)c1sccc1Nc1nc(Nc2ccc(NC(=O)c3cccc(F)c3)cc2)ncc1C(F)(F)F = 239.8 to 241.5 °C
CNC(=O)c1sccc1Nc1nc(Nc2ccc(NC(=O)c3ccccc3F)cc2)ncc1C(F)(F)F = 213.3 to 215.4 °C
CNC(=O)c1sccc1Nc1nc(Nc2ccc(NC(=O)c3cccc(C(F)(F)F)c3)cc2)ncc1C(F)(F)F = 232 to 233.5 °C

What measured melting point goes with CNC(=O)c1sccc1Nc1nc(Nc2ccc(NC(=O)c3ccc(F)cc3)cc2)ncc1C(F)(F)F ? 217.2 to 219.3 °C

And then CNC(=O)c1sccc1Nc1nc(Nc2ccc(NC(=O)C=Cc3ccc(F)cc3)cc2)ncc1C(F)(F)F , what is it? 248.8 to 249.1 °C

###

measured quantity: melting point

Example compounds with recorded melting point:
CNC(=O)c1sccc1Nc1nc(Nc2ccc(NC(=O)C=Cc3cccc(F)c3)cc2)ncc1C(F)(F)F = 237.5 to 238.8 °C
CNC(=O)c1sccc1Nc1nc(Nc2ccc(NC(=O)C3CCOCC3)cc2)ncc1C(F)(F)F = 232.3 to 233.8 °C
CNC(=O)c1sccc1Nc1nc(Nc2ccc(NC(=O)C3CCCCC3)cc2)ncc1C(F)(F)F = 246.7 to 248.2 °C
CNC(=O)c1sccc1Nc1nc(Nc2ccc(NC(=O)C=Cc3ccccc3)cc2)ncc1C(F)(F)F = 212.5 to 213.8 °C
CNC(=O)c1sccc1Nc1nc(Nc2ccc(NC(=O)C3CCN(C(C)=O)CC3)cc2)ncc1C(F)(F)F = > 250 °C

Entry under review: CNC(=O)c1sccc1Nc1nc(Nc2ccc(NC(=O)C3CCCC3)cc2)ncc1C(F)(F)F . Reported melting point? 246.4 to 247.2 °C

Try CNC(=O)c1sccc1Nc1nc(Nc2ccc(NC(=O)C3CC3)cc2)ncc1C(F)(F)F next. > 250 °C

Then CNC(=O)c1sccc1Nc1nc(Nc2ccc(NC(=O)Nc3ccc(F)cc3)cc2)ncc1C(F)(F)F ? > 250 °C

Would you kindly repeat that for CNC(=O)c1sccc1Nc1nc(Nc2ccc(NC(=O)c3ccccc3)cc2)ncc1C(F)(F)F ? 212.5 to 213.8 °C

Same for CNC(=O)c1sccc1Nc1nc(Nc2ccc(NC(=O)Nc3cccc(F)c3)cc2)ncc1C(F)(F)F > 250 °C

Next up: CNC(=O)c1sccc1Nc1nc(Nc2ccc(NC(=O)c3ccc(F)c(F)c3)cc2)ncc1C(F)(F)F 218.9 to 219.7 °C

Follow-up item: CNC(=O)c1sccc1Nc1nc(Nc2ccc(NC(=O)c3cc(OC)c(OC)c(OC)c3)cc2)ncc1C(F)(F)F 211.9 to 213.1 °C

Ok, now CNC(=O)c1sccc1Nc1nc(Nc2ccc(NC(=O)c3ccc(OC)cc3)cc2)ncc1C(F)(F)F 229.4 to 230.6 °C

###

target: EGFR^wt-TK (Homo sapiens, UniProt P00533); construct: purchased; experiment: In vitro EGFR^wt-TK assay (ELISA kit); type: biochemical; conditions: 1 μM, mean ± SD of three replicates, read-out: EGFR^wt-TK inhibition rate
Sequence (P00533 25-1210): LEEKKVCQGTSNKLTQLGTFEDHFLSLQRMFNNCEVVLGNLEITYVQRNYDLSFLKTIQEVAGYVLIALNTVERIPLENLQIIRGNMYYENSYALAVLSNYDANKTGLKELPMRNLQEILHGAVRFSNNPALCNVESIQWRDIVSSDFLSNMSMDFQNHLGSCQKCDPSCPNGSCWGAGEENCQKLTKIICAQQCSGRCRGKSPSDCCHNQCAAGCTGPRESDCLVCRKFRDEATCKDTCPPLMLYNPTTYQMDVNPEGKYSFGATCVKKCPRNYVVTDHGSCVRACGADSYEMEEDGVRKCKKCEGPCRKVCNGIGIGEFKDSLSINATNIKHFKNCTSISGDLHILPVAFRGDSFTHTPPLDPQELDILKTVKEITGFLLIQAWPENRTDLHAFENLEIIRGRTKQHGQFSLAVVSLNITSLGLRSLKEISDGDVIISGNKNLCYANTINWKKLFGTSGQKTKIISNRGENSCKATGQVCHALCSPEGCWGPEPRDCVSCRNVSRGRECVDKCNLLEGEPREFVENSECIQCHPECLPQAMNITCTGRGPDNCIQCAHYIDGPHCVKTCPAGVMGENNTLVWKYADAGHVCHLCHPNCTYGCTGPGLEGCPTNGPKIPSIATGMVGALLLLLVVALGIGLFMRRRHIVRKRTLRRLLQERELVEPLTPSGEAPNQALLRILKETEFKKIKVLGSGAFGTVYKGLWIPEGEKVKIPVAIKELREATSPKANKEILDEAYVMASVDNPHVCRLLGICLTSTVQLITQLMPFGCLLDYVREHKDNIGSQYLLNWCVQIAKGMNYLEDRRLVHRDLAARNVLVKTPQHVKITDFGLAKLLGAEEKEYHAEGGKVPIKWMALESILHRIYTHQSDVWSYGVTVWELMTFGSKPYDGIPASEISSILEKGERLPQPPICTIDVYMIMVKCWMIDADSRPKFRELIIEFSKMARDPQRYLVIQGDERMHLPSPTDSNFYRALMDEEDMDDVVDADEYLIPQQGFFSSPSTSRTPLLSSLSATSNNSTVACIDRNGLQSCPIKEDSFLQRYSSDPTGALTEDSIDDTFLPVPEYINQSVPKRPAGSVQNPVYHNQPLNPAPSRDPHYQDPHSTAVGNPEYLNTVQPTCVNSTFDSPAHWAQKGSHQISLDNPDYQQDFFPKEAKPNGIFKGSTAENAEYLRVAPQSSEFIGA
measured quantity: inhibition at 1 µM (%)
The reply should contain only the number, in %.

Below, each entry is followed by its recorded inhibition at 1 µM result.
CNC(=O)c1sccc1Nc1nc(Nc2ccc(NC(=O)C3CCCCC3)cc2)ncc1C(F)(F)F = 26.6
CNC(=O)c1sccc1Nc1nc(Nc2ccc(NC(=O)C3CCCC3)cc2)ncc1C(F)(F)F = 18.9
CCC(=O)Nc1ccc(Nc2ncc(C(F)(F)F)c(Nc3ccsc3C(=O)NC)n2)cc1 = 11.9
CNC(=O)c1sccc1Nc1nc(Nc2ccc(NC(=O)C3CCN(C(C)=O)CC3)cc2)ncc1C(F)(F)F = 37.1
CNC(=O)c1sccc1Nc1nc(Nc2ccc(NC(=O)c3ccc(F)cc3)cc2)ncc1C(F)(F)F = 49.4
CNC(=O)c1sccc1Nc1nc(Nc2ccc(NC(=O)c3ccccc3F)cc2)ncc1C(F)(F)F = 46.3
CNC(=O)c1sccc1Nc1nc(Nc2ccc(NC(=O)c3cccc(C(F)(F)F)c3)cc2)ncc1C(F)(F)F = 41.1
CNC(=O)c1sccc1Nc1nc(Nc2ccc(NC(=O)c3ccccc3)cc2)ncc1C(F)(F)F = 32.5
CNC(=O)c1sccc1Nc1nc(Nc2ccc(NC(=O)C3CCC3)cc2)ncc1C(F)(F)F = 13.3
CNC(=O)c1sccc1Nc1nc(Nc2ccc(NC(=O)C3CC3)cc2)ncc1C(F)(F)F = 12.6

Now look at this one.
Field request: inhibition at 1 µM | item: CNC(=O)c1sccc1Nc1nc(Nc2ccc(NC(=O)Nc3ccc(F)cc3)cc2)ncc1C(F)(F)F 44.5

###

target: EGFR^wt-TK (Homo sapiens); construct: purchased; test: In vitro EGFR^wt-TK assay (ELISA kit); type: biochemical; settings: 1 μM, mean ± SD of three replicates
# key: entry, value: EGFR^wt-TK inhibition rate
Report the value in % with no unit label.

Example compounds with recorded EGFR^wt-TK inhibition rate:
CNC(=O)c1sccc1Nc1nc(Nc2ccc(NC(=O)C=Cc3ccc(F)cc3)cc2)ncc1C(F)(F)F [Compound 9v] = 58.14
CNC(=O)c1sccc1Nc1nc(Nc2ccc(NC(=O)c3cc(OC)c(OC)c(OC)c3)cc2)ncc1C(F)(F)F [Compound 9h] = 56.43
CNC(=O)c1sccc1Nc1nc(Nc2ccc(NC(=O)c3cccc(F)c3)cc2)ncc1C(F)(F)F [Compound 9c] = 55.48
CNC(=O)c1sccc1Nc1nc(Nc2ccc(NC(=O)C=Cc3cccc(F)c3)cc2)ncc1C(F)(F)F [Compound 9u] = 62.73
CNC(=O)c1sccc1Nc1nc(Nc2ccc(NC(=O)C=Cc3ccccc3)cc2)ncc1C(F)(F)F [Compound 9t] = 53.56

Need EGFR^wt-TK inhibition rate of C#CC(=O)Nc1ccc(Nc2ncc(C(F)(F)F)c(Nc3ccsc3C(=O)NC)n2)cc1 [Compound 9k] , thanks. 55.73

Moving on to CNC(=O)c1sccc1Nc1nc(Nc2ccc(NC(=O)c3ccc(F)c(F)c3)cc2)ncc1C(F)(F)F [Compound 9e] 54.49

###

biological target: EGFR^wt-TK (Homo sapiens); construct: purchased; test: In vitro EGFR^wt-TK assay (ELISA kit); assay type: biochemical; conditions: 1 μM, mean ± SD of three replicates, read-out: EGFR^wt-TK inhibition rate
measured quantity: inhibition at 1 µM (%)
The response must be a number in % with no trailing unit.

Field: example entries. Status: answers known.
CNC(=O)c1sccc1Nc1nc(Nc2ccc(NC(=O)c3ccc(OC)cc3)cc2)ncc1C(F)(F)F = 28.8
CNC(=O)c1sccc1Nc1nc(Nc2ccc(NC(=O)C3CCN(C)CC3)cc2)ncc1C(F)(F)F = 33

Here's the next entry for you.
Field request: inhibition at 1 µM | item: CNC(=O)c1sccc1Nc1nc(Nc2ccc(NC(=O)C(C)C)cc2)ncc1C(F)(F)F 8.76
